Numbers sourced from patent US20230219942A1.

Target: PD-1/PD-L1 interaction (Homo sapiens)
Construct: Tag1 or Tag2 (undisclosed kit tag); purchased Cisbio
Experiment: Cisbio PD-1/PD-L1 Homogeneous Time-Resolved Fluorescence (HTRF) binding assay
Conditions: Table 9; same result in μM; read-out: Reported IC50
Property measured: log10 of IC50 (log10 of the value in µM)
Record value = log10 of IC50 given in µM.

log10 of IC50 in this record for `COc1cc(C(=O)N2CCN(Cc3csc(NC[C@@H]4CCCN4Cc4ccc(C5CC5)cc4)n3)CC2)cc(OC)c1OC` : 0.96

log10 of IC50 in this record for `COc1cc(C(=O)N2CCN(Cc3csc(NC[C@@H]4CCCN4Cc4ccc(Cl)cc4)n3)CC2)cc(OC)c1OC` : -0.68

log10 of IC50 in this record for `O=C(c1ccc(=O)[nH]c1)N1CCN(Cc2csc(NC[C@@H]3CCCN3Cc3ccc(Br)cc3)n2)CC1` : -0.60

log10 of IC50 in this record for `COc1cc(C(=O)N2CCN([C@@H](C)c3csc(NC[C@@H]4CCCN4Cc4ccc(Br)cc4)n3)CC2)cc(OC)c1OC` : -0.66

log10 of IC50 in this record for COc1cc(CN2CCN(Cc3csc(NCC4CCCN4C(C)c4ccc(Br)cc4)n3)CC2)cc(OC)c1OC (centres unmarked) [Compound A602] : -0.49

log10 of IC50 in this record for `Cn1ncc2cc(C(=O)N3CCN(Cc4csc(NC[C@@H]5CCCN5Cc5ccc(Br)cc5)n4)CC3)ccc21` : -0.31

log10 of IC50 in this record for `COc1cc(C(=O)N2CCN(Cc3csc(NC[C@@H]4C[C@@H](OC)CN4Cc4ccc(Br)cc4)n3)CC2)cc(OC)c1OC` : -0.77

log10 of IC50 in this record for `COc1cc(C(=O)N2C[C@H](C)N(Cc3csc(NC[C@@H]4CCCN4Cc4ccc(Br)cc4)n3)C[C@@H]2C)cc(OC)c1OC` : -1.02

log10 of IC50 in this record for COc1cc(CN2CCN(Cc3csc(NCC4CCCN4Cc4ccc(Br)cc4)n3)CC2)cc(OC)c1OC (centres unmarked) : -0.13

log10 of IC50 in this record for COc1cc(CN2CCN(Cc3csc(NCC4CCCN4C(C)c4ccc(Br)cc4)n3)CC2)cc(OC)c1OC (centres unmarked) [Compound A601] : -0.80

---

Target: PD-1/PD-L1 interaction (Homo sapiens, UniProt Q9NZQ7)
Construct: Tag1 or Tag2 (undisclosed kit tag); purchased Cisbio
Sequence (Q9NZQ7 19-238 limits assumed): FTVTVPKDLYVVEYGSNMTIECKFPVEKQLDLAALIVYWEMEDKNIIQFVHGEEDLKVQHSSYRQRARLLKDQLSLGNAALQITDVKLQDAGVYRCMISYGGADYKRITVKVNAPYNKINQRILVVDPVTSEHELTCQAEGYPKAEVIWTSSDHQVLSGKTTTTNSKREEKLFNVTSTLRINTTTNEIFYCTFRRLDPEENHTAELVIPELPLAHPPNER
Experiment: Cisbio PD-1/PD-L1 Homogeneous Time-Resolved Fluorescence (HTRF) binding assay
Settings: Table 10; same result in μM; P1 and P2 are different isomers; read-out: Reported IC50
Excerpt: The ability of compounds of the disclosure to inhibit the PD-1/PD-L1 interaction was investigated using a Cisbio PD-1/PD-L1 Homogeneous Time-Resolved Fluorescence (HTRF) binding assay (https://ca.cisbio.net/human-pd1-pd-l1-biochemical-binding-assay-44666). With the assay, the interaction between PD-L1 and PD-1 is detected by using anti-Tag1 labeled with Europium (HTRF donor) and anti-Tag2 labeled with XL665 (HTRF acceptor). […]
Give IC50 for every item shown.

`COc1cc(C(=O)N2CCN([C@H](C)c3nsc(NC[C@@H]4CCCN4Cc4ccc(Br)cc4)n3)CC2)cc(OC)c1OC` tested on PD-1/PD-L1 interaction (Homo sapiens, UniProt Q9NZQ7) gave IC50: 0.014 µM

`COc1cc(C(=O)N2CCN(Cc3cc(NC[C@@H]4CCCN4Cc4ccc(Br)cc4)sn3)CC2)cc(OC)c1OC` tested on PD-1/PD-L1 interaction (Homo sapiens, UniProt Q9NZQ7) gave IC50: 0.028 µM

`COc1cc(C(=O)N2CCN(Cc3nsc(NC[C@@H]4CCCCN4Cc4ccc(Br)cc4)n3)CC2)cc(OC)c1OC` tested on PD-1/PD-L1 interaction (Homo sapiens, UniProt Q9NZQ7) gave IC50: 0.096 µM

`Cn1cc(C(=O)N2CCN(Cc3nsc(NC[C@@H]4CCCN4Cc4ccc(Br)cc4)n3)CC2)ccc1=O` tested on PD-1/PD-L1 interaction (Homo sapiens, UniProt Q9NZQ7) gave IC50: 0.22 µM

`O=C(c1ccc(Cl)cc1)N1CCN(Cc2nsc(NC[C@@H]3CCCN3Cc3ccc(Br)cc3)n2)CC1` tested on PD-1/PD-L1 interaction (Homo sapiens, UniProt Q9NZQ7) gave IC50: 1 µM

`COc1cc(C(=O)N2CCN(Cc3nsc(NC[C@@H]4CCCN4Cc4ccc(C(F)F)cc4)n3)CC2)cc(OC)c1OC` tested on PD-1/PD-L1 interaction (Homo sapiens, UniProt Q9NZQ7) gave IC50: 0.025 µM

`COc1cc(C(=O)N2CCN(Cc3nsc(NC[C@@H]4C[C@@H](O)CN4Cc4ccc(Br)cc4)n3)CC2)cc(OC)c1OC` tested on PD-1/PD-L1 interaction (Homo sapiens, UniProt Q9NZQ7) gave IC50: 0.012 µM

`COc1cc(C(=O)N2CCN([C@@H](C)c3nsc(NC[C@@H]4CCCN4Cc4ccc(Br)cc4)n3)CC2)cc(OC)c1OC` tested on PD-1/PD-L1 interaction (Homo sapiens, UniProt Q9NZQ7) gave IC50: 0.012 µM

`COc1cc(C(=O)N2CCN(Cc3nsc(NC[C@@H]4CCCN4Cc4ccc(C(F)(F)F)cc4)n3)CC2)cc(OC)c1OC` tested on PD-1/PD-L1 interaction (Homo sapiens, UniProt Q9NZQ7) gave IC50: 0.018 µM

`O=C(c1ccc(=O)[nH]c1)N1CCN(Cc2nsc(NC[C@@H]3CCCN3Cc3ccc(Br)cc3)n2)CC1` tested on PD-1/PD-L1 interaction (Homo sapiens, UniProt Q9NZQ7) gave IC50: 0.44 µM

`Cc1ccc(C(=O)N2CCN(Cc3nsc(NC[C@@H]4CCCN4Cc4ccc(Br)cc4)n3)CC2)cc1` tested on PD-1/PD-L1 interaction (Homo sapiens, UniProt Q9NZQ7) gave IC50: 0.65 µM

`COc1cc(C(=O)N2CCN(Cc3nsc(NC[C@@H]4C[C@@H](O)CN4[C@@H](C)c4ccc(Br)cc4)n3)CC2)cc(OC)c1OC` tested on PD-1/PD-L1 interaction (Homo sapiens, UniProt Q9NZQ7) gave IC50: 0.044 µM
